Molecular target: OMA1 (Rattus norvegicus, UniProt D3ZS74)
Construct: Renal cell lysates from normal rat kidney (NRK) epithelial cell line were prepared; endogenous in cells; host or cells: NRK-52E (ATCC CRL-1571), RIPA lysate, 5 µg protein per well
Sequence (D3ZS74 123-504): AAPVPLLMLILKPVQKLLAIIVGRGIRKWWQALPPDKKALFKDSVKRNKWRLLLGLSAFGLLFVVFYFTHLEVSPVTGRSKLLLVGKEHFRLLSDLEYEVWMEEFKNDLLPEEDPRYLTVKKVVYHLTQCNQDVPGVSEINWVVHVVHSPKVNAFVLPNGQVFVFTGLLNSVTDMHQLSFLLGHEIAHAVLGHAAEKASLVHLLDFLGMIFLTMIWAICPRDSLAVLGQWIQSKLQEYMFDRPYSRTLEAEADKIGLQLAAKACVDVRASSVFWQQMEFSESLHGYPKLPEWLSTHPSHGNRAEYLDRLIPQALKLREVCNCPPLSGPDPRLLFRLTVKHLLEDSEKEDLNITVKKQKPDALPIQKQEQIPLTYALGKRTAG
Assay: OMA1 activity assay (OPA1 FRET substrate) in NRK cell lysates
Assay type: biochemical
Details: Table 2; slope over 30 min, % comparison to AFRATDHG; 2-3 experiments/substrate
Protocol: Normal rat kidney cells (NRK-52E; ATCC No. CRL-1571) were maintained in a humidified incubator with 5% CO2, 95% air at 37° C. in DMEM containing 5% fetal bovine serum. […] Protein concentrations were determined by Coomassie Plus Protein Assay Reagent (Pierce). […] For the statistical analysis, the average fluorescence of the OPA1 FRET substrate alone was measured (<150 relative FLS units) and that value was subtracted from the sample values. […]
No end group written: not given here. *: point of attachment. Mca = COc1ccc2c(CC(=O)*)cc(=O)oc2c1; DNP = 2,4-Dinitrophenyl, quencher
Exercise: state measured OMA1 Activity for each of the sequences provided.
Just the number please, in %, no unit attached.

Request: I would be grateful if you could share the reported OMA1 Activity for AARAAAAA (Mca-AARAAAAA; not fully specified (C-terminus); also: FRET fluorophore and quencher, sites not given here) [FRET substrate with RA motif flanked by alanine residues] .
Result: 35

Request: I would be grateful if you could share the reported OMA1 Activity for ATDHGSES (Mca-ATDHGSES; not fully specified (C-terminus); also: FRET fluorophore and quencher) [eight amino acid FRET peptide from OPA1 downstream of the cleavage site, no RA motif] .
Result: 2.71

Request: I would be grateful if you could share the reported OMA1 Activity for AFRATDHG (Mca-AFRATDHG-{DNP}) [MCA-AFRATDHG-DNP, eight amino acid OPA1 S1-site peptide with MCA fluorophore on the N-terminus and DNP quencher on the C-terminus] .
Result: 100

Request: I would be grateful if you could share the reported OMA1 Activity for AFKATDHG (Mca-AFKATDHG; not fully specified (C-terminus); also: FRET fluorophore and quencher) [FRET substrate with Arg changed to Lys] .
Result: 61
